# test: activity coefficient (dimensionless); of the first substance listed, at infinite dilution; xn = mol fraction of the nth substance listed
# measurement.context: 343.15 K; Liquid; Chromatography; x1 = 0
readout: activity coefficient
A bare number is all that is needed in reply.

So for CCO [ethanol] + CCCCn1cc[n+](C)c1.F[B-](F)(F)F , the logged activity coefficient turned out to be 1.07

Sample C1COCCO1 [1,4-dioxane] + CCCCn1cc[n+](C)c1.F[B-](F)(F)F ; activity coefficient observed: 1.57

The value of activity coefficient measured for the molecule ClCCl [dichloromethane] + CCCCn1cc[n+](C)c1.F[B-](F)(F)F turned out to be 1.28
